# measurement.target: Serine/threonine-protein kinase 25 (Homo sapiens, UniProt O00506)
pIC50: −log10 of the molar value.
measured.parameter: pIC50

Find the measured pIC50 of COc1ncc(F)cc1CNc1ccc(Cc2c[nH]c3ncc(C)cc23)c(F)n1 and report it.
< 6.00

---

# assay.procedure: Cmax in dog at 45 mg/kg, po administered as single dose via gavage
# Format: ADME, organism-based, Canis lupus familiaris
# assay.setup: in vivo
measured.parameter: Cmax (ng/mL)
Give your result in ng/mL as a bare value.

Find the measured Cmax of COc1ncc(F)cc1CNc1ccc(Cc2c[nH]c3ncc(C)cc23)c(F)n1 and report it.
3630

---

# assay.procedure: Drug concentration in 5XFAD mouse brain at 1200 ppm administered as rodent chow for 10 to 24 weeks
# Type: ADME, tissue-based
# assay.setup: in vivo, po, time 10-24 weeks, read-out: Ct
measured.parameter: concentration (µM)
Give your result in µM as a bare value.

Find the measured concentration of COc1ncc(F)cc1CNc1ccc(Cc2c[nH]c3ncc(C)cc23)c(F)n1 [PLX-5622] and report it.
3.47

---

# assay.procedure: AUC (0 to 24 hrs) in 5XFAD mouse plasma at 1200 ppm administered as rodent chow for 180 days
# Format: ADME, cell-free
# assay.setup: route po, time 180 day
measured.parameter: AUC at 4320 h (µg·h/mL)
Give your result in µg·h/mL as a bare value.

Find the measured AUC at 4320 h of COc1ncc(F)cc1CNc1ccc(Cc2c[nH]c3ncc(C)cc23)c(F)n1 [PLX-5622] and report it.
218

---

# measurement.target: Casein kinase I isoform gamma-2 (Homo sapiens, UniProt P78368)
# Sequence (P78368 whole entry, canonical isoform): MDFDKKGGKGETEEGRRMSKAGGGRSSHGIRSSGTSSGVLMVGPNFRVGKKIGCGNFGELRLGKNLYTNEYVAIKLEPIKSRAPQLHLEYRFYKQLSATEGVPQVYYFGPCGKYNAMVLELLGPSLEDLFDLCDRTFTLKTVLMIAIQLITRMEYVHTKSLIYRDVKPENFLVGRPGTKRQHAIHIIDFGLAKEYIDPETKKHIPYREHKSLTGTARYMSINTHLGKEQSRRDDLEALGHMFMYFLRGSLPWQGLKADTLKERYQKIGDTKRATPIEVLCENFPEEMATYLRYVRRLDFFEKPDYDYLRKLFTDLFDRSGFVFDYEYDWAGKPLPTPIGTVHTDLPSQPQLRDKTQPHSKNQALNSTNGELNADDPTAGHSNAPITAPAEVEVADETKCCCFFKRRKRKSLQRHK
# assay.procedure: Inhibition of CSNK1G2 (unknown origin)
pIC50: −log10 of the molar value.
measured.parameter: pIC50

Find the measured pIC50 of COc1ncc(F)cc1CNc1ccc(Cc2c[nH]c3ncc(C)cc23)c(F)n1 and report it.
< 6.00

---

# assay.procedure: Clearance in male rat at 1.13 mg/kg, iv administered as single dose
# Format: ADME, organism-based
# assay.setup: in vivo
measured.parameter: clearance (mL/min/kg)
Give your result in mL/min/kg as a bare value.

Find the measured clearance of COc1ncc(F)cc1CNc1ccc(Cc2c[nH]c3ncc(C)cc23)c(F)n1 and report it.
7.7

---

# assay.procedure: AUC (0 to 24 hrs) in mouse brain at 300 ppm administered as rodent chow for 14 days
# Type: ADME, tissue-based
# assay.setup: route po, time 14 day
measured.parameter: AUC at 336 h (ng·h/mL)
Give your result in ng·h/mL as a bare value.

Find the measured AUC at 336 h of COc1ncc(F)cc1CNc1ccc(Cc2c[nH]c3ncc(C)cc23)c(F)n1 and report it.
23100

---

# measurement.target: Rho-associated protein kinase 2 (Homo sapiens, UniProt O75116)
# Sequence (O75116 whole entry): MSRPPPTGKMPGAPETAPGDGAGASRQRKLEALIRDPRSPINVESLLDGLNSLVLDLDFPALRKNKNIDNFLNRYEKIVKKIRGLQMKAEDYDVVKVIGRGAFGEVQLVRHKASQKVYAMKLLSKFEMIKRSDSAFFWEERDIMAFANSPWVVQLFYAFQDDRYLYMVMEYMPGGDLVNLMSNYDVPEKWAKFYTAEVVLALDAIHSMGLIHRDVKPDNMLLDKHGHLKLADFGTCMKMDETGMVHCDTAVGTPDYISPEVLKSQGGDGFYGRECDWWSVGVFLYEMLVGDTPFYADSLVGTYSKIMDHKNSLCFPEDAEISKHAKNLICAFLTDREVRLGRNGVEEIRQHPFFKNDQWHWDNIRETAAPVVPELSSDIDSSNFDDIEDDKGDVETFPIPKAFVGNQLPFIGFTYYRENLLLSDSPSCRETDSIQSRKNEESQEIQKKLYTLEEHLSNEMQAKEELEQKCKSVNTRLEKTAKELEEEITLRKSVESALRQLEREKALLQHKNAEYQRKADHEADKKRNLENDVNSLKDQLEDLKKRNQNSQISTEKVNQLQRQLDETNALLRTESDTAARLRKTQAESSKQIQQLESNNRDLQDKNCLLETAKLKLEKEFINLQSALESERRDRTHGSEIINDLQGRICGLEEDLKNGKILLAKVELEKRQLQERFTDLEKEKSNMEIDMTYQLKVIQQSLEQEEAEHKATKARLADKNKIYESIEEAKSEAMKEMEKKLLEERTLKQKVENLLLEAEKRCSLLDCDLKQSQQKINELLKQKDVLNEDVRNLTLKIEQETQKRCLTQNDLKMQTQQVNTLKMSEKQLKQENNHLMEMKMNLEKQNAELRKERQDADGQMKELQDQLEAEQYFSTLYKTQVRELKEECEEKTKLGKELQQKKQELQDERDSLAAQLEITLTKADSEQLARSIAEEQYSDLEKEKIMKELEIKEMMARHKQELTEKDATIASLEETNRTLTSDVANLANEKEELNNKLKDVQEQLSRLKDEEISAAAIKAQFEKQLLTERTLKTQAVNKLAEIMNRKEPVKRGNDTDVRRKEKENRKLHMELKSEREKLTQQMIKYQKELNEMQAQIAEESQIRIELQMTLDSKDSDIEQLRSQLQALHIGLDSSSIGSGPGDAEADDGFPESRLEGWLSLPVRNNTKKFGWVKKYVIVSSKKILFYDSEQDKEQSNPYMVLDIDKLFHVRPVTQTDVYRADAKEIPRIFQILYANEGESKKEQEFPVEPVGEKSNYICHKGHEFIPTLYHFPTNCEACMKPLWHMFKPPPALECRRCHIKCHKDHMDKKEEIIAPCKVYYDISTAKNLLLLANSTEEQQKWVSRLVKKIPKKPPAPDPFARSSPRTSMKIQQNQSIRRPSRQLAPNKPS
# assay.procedure: Inhibition of ROCK2 (unknown origin)
pIC50: −log10 of the molar value.
measured.parameter: pIC50

Find the measured pIC50 of COc1ncc(F)cc1CNc1ccc(Cc2c[nH]c3ncc(C)cc23)c(F)n1 and report it.
< 6.00

---

# measurement.target: Vascular endothelial growth factor receptor 3 (Homo sapiens)
# Sequence (P35916 whole entry): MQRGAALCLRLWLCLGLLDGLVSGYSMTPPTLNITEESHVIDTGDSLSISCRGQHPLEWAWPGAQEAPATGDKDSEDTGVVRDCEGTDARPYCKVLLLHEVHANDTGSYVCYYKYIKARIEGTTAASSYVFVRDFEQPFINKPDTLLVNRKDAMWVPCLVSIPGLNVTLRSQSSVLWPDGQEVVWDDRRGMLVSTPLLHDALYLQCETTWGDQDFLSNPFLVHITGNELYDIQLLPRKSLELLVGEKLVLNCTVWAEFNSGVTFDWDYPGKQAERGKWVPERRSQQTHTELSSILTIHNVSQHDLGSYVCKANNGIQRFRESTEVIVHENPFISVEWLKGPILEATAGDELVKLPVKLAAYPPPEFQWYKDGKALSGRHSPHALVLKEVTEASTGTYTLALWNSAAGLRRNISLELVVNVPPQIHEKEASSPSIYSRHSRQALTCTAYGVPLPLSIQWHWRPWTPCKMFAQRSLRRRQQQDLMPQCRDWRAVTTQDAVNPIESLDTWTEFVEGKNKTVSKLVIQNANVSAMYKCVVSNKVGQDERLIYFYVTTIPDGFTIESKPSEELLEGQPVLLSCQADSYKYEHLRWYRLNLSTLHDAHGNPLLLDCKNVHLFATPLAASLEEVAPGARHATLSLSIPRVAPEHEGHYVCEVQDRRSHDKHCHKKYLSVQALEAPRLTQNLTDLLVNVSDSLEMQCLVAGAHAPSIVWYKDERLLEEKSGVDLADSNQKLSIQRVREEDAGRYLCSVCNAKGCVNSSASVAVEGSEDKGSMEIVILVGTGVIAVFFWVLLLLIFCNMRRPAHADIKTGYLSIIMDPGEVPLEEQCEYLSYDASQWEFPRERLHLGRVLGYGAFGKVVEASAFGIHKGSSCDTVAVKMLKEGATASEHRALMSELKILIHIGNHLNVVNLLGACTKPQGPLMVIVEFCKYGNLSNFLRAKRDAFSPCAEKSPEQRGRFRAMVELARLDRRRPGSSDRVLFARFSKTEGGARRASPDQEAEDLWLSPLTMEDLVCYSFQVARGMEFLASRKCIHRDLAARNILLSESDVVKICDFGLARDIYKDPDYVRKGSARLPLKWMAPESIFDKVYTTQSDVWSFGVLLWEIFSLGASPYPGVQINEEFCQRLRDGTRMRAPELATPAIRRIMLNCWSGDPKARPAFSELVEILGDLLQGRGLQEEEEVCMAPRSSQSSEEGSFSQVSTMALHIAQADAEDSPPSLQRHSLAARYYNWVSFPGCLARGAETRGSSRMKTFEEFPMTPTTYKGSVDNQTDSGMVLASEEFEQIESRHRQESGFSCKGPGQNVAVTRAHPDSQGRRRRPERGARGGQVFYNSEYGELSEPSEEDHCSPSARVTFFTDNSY
measured.parameter: IC50

Look up Vascular endothelial growth factor receptor 3 (Homo sapiens) data: IC50 of COc1ncc(F)cc1CNc1ccc(Cc2c[nH]c3ncc(C)cc23)c(F)n1 [PLX-5622] , then report it.
> 1000 nM

---

# measurement.target: Ephrin type-B receptor 4 (Homo sapiens)
# Sequence (P54760 whole entry): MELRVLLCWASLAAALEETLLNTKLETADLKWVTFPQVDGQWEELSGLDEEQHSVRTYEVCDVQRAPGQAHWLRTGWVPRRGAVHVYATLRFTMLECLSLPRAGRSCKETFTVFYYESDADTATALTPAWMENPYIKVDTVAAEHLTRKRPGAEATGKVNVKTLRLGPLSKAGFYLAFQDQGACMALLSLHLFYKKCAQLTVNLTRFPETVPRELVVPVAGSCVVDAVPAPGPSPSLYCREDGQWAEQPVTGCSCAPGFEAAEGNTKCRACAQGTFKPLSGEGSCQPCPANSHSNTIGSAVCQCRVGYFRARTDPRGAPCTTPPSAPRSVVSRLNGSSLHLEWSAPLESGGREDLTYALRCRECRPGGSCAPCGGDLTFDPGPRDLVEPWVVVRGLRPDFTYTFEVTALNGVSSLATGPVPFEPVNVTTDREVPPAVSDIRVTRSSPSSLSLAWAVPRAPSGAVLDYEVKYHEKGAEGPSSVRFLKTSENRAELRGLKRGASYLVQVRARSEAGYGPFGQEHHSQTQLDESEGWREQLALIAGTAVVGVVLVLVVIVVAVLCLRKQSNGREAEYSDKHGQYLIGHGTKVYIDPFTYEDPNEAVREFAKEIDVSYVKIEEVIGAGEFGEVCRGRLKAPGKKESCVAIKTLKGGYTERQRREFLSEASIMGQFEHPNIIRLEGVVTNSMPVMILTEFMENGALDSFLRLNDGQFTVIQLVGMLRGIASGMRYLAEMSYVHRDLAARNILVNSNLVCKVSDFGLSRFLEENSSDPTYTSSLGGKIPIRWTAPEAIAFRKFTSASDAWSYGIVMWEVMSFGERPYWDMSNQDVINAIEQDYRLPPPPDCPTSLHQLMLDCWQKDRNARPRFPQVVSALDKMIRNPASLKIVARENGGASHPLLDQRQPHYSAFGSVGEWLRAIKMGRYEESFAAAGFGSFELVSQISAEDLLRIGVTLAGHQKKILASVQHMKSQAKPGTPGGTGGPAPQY
measured.parameter: IC50

Find the measured IC50 of COc1ncc(F)cc1CNc1ccc(Cc2c[nH]c3ncc(C)cc23)c(F)n1 and report it.
> 1000 nM

---

# measurement.target: Tyrosine-protein kinase Blk (Homo sapiens, UniProt P51451)
measured.parameter: IC50

Look up Tyrosine-protein kinase Blk (Homo sapiens, UniProt P51451) data: IC50 of COc1ncc(F)cc1CNc1ccc(Cc2c[nH]c3ncc(C)cc23)c(F)n1 , then report it.
> 1 µM

---

# measurement.target: Tyrosine-protein kinase SYK (Homo sapiens)
pIC50: −log10 of the molar value.
measured.parameter: pIC50

Look up Tyrosine-protein kinase SYK (Homo sapiens) data: pIC50 of COc1ncc(F)cc1CNc1ccc(Cc2c[nH]c3ncc(C)cc23)c(F)n1 [PLX-5622] , then report it.
< 6.00

---

# measurement.target: Protein kinase C eta type (Homo sapiens, UniProt P24723)
# Sequence (P24723 whole entry): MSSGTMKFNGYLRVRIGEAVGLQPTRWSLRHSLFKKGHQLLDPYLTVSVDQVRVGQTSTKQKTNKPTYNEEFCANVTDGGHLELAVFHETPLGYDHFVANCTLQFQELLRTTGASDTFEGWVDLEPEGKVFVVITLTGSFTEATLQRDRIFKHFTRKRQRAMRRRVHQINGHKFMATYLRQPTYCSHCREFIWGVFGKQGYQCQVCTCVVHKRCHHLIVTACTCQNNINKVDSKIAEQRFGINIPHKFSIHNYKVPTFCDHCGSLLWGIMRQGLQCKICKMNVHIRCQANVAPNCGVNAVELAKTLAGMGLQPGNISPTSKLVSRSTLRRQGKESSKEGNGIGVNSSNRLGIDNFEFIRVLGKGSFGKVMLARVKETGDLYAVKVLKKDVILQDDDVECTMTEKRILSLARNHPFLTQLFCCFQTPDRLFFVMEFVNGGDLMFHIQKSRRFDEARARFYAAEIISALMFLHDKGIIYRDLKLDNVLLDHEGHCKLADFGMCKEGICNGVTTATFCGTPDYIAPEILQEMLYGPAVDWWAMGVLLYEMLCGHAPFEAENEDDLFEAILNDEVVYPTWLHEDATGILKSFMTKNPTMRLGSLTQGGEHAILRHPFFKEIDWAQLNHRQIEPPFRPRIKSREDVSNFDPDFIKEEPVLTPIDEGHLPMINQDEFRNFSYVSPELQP
# assay.procedure: Inhibition of PRKCH (unknown origin)
pIC50: −log10 of the molar value.
measured.parameter: pIC50

Find the measured pIC50 of COc1ncc(F)cc1CNc1ccc(Cc2c[nH]c3ncc(C)cc23)c(F)n1 and report it.
< 6.00

---

# measurement.target: Testis-specific serine/threonine-protein kinase 1 (Homo sapiens)
# Sequence (Q9BXA7 whole entry): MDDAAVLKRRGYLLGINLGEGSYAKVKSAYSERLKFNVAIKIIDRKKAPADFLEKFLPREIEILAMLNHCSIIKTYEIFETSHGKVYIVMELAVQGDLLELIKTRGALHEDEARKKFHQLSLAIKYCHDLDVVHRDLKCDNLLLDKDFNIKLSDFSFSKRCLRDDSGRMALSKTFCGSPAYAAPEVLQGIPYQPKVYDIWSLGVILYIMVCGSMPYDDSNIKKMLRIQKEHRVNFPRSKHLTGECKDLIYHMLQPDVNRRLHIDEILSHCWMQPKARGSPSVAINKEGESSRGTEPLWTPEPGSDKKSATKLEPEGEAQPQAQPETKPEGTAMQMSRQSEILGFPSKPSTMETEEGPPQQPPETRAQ
measured.parameter: IC50

Find the measured IC50 of COc1ncc(F)cc1CNc1ccc(Cc2c[nH]c3ncc(C)cc23)c(F)n1 [PLX-5622] and report it.
> 1 µM

---

# assay.procedure: Clearance in female rat at 1.13 mg/kg, iv administered as single dose
# Type: ADME, organism-based
# assay.setup: in vivo
measured.parameter: clearance (mL/min/kg)
Give your result in mL/min/kg as a bare value.

Find the measured clearance of COc1ncc(F)cc1CNc1ccc(Cc2c[nH]c3ncc(C)cc23)c(F)n1 and report it.
3.7

---

# measurement.target: Tyrosine-protein kinase Mer (Homo sapiens)
measured.parameter: IC50

Find the measured IC50 of COc1ncc(F)cc1CNc1ccc(Cc2c[nH]c3ncc(C)cc23)c(F)n1 [PLX-5622] and report it.
> 1000 nM

---

# measurement.target: Mitogen-activated protein kinase kinase kinase kinase 4 (Homo sapiens)
# Sequence (O95819 whole entry): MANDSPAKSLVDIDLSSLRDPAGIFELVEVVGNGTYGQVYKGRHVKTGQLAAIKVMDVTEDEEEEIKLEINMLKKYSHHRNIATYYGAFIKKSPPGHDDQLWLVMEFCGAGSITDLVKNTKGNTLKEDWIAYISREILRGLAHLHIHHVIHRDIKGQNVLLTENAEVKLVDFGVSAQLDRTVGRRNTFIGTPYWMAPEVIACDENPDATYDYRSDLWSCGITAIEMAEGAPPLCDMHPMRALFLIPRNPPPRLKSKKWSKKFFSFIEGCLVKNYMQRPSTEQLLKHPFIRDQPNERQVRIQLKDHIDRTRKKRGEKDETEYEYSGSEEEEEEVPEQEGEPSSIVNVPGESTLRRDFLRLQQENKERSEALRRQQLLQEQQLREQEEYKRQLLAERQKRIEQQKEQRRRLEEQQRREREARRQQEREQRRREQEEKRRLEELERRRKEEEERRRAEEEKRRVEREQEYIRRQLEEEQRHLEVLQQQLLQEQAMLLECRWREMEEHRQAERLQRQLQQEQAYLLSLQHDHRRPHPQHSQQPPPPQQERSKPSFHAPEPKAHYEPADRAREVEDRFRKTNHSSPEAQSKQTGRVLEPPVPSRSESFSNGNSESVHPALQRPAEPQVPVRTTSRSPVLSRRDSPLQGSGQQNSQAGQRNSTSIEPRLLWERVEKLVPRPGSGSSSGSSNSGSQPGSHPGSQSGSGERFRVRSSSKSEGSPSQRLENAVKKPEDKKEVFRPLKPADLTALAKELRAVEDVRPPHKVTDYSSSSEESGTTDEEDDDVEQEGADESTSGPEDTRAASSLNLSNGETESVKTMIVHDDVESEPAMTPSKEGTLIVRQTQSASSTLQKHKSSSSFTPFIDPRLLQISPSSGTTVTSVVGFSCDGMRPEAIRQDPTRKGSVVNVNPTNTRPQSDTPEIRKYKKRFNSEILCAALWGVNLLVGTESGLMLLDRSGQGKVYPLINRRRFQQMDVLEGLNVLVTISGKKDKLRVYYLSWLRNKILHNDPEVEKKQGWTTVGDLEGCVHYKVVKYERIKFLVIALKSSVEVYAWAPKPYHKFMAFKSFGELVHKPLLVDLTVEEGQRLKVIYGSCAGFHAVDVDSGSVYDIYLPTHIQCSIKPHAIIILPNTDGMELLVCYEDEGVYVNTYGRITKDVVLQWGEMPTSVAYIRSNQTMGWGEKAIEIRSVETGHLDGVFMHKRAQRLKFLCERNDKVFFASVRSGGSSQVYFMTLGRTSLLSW
# assay.procedure: Inhibition of MAP4K4 (unknown origin)
measured.parameter: IC50

Find the measured IC50 of COc1ncc(F)cc1CNc1ccc(Cc2c[nH]c3ncc(C)cc23)c(F)n1 and report it.
> 1000 nM

---

# assay.procedure: Drug concentration in mouse plasma at 300 ppm administered as rodent chow for 14 days
# Assay type: ADME, cell-free
# assay.setup: route po, time 14 day
measured.parameter: concentration at 336 h
Give me the value, and tack the unit on after it.

Find the measured concentration at 336 h of COc1ncc(F)cc1CNc1ccc(Cc2c[nH]c3ncc(C)cc23)c(F)n1 [PLX-5622] and report it.
4340 ng/mL
